- Test system: PCSK9 gene
- protocolDescription: PCSK9 gRNA/SpCas9 editing in primary cynomolgus hepatocytes (Tables 2, 22)
- Format: cell-based, cynomolgus monkey
- conditionSet: SpCas9 mRNA MS002, 2500 ng/test article/mL, rep2
In the oligonucleotide strings, read from the 5' end, every base follows the letter of its sugar. An asterisk marks phosphorothioate; unmarked linkages are phosphodiester. Other units and linkages are bracketed, terminal groups are in braces. A string of capitals states the bases alone. m = 2'-O-methyl; r = 2'-OH (RNA)
observable: Cynomolgus Primary Hepatocytes-% Editing (%)
Answer in %, number only, no unit symbol.

These recorded examples may help you get a feel for the data.
>>> readoutnumber("GA401 (nucleic acid) guide: mU*mC*mA*rGrCrUrCrCrArGrGrCrGrGrUrCrCrUrGrGmGrUrUrUrUrArGmAmGmCmUmAmGmAmAmAmUmAmGmCmAmArGrUrUmArAmArAmUrAmAmGmGmCmUmArGrUmCmCrGrUrUrAmUmCrArAmCmUmUmGmAmAmAmAmAmGmUmGrGmCmAmCmCmGmAmGmUmCmGmGmUmGmCmU*mU*mU*mUmUmUmU")
52.79
>>> readoutnumber("GA405: gRNA targeting PCSK9 with modifications to the tracr, for SpCas9 (nucleic acid) guide: mU*mC*mA*rGrCrUrCrCrArGrGrCrGrGrUrCrCrUrGrGmGrUrUrUrUrArGmAmGmCmUmAmGmAmAmAmUmAmGmCmAmArGrUrUmArAmArAmUrAmAmGmGmCmUmArGrUrCmCrGrUrUrAmUmCrArAmCmUmUmGmAmAmAmAmAmGmUmGmGmCmAmCmCmGmAmGmUmCmGmGmUmGmCmU*mU*mU*mUmUrUmU")
47.33

From here, focus on the item given below.
Ask: Would you mind telling me what Cynomolgus Primary Hepatocytes-% Editing value was observed for GA402 (nucleic acid) guide: mU*mC*mA*rGrCrUrCrCrArGrGrCrGrGrUrCrCrUrGrGmGrUrUrUrUrArGmAmGmCmUmArGmAmAmAmUmAmGmCmAmArGrUrUmArAmArAmUrAmAmGmGmCmUmArGrUmCmCrGrUrUrAmUmCrArAmCmUmUrGmAmAmAmAmAmGmUmGrGmCmAmCmCmGmAmGmUmCmGmGmUmGmCmU*mU*mU*mUmUrUmU ?
Result: 55.34
